- assay.summary: soluble on expression in E. coli; label from the status in PepcDB or PDB records

[
  {
    "residue.codes": "MMRIGIIARFDVAEAVEIAERVASFLLNRGVEITVDLKLTEELPQLREYGEDIRNMDADMILTIGGDGTILRTRSLIEDKEIPILGINMGTVGFLTEVDPENVFSALEAVLRGEYAVEKRTLLSVYHNDELPSALNEVVLMTRRPAKMLHIEISVDDEVVEELRADGIIIATPSGSTAYSMSAGGPIVDPRVEAFLIVPICPFKLSARPLVVSNKSVIRVKLLRKGKKAIAVIDGQYEEEINHMDEVIFRKSERKAHFVRLSKDFYRKVREKLIEGGIDSIKG",
    "soluble on expression in E. coli": "soluble"
  },
  {
    "residue.codes": "MTKFNWHESAEKKWDSSAEFWNQNSQEMWDSGSRSTIIPFFEQYVKKEAQVLDVGCGDGYGTYKLSSAGYKAVGVDLSEVMIQKGKERGEGPNLSFIKGDLSALPFENEQFESIMAINSLEWTEEPLRALNEIKRVLKKDGYACIAILGPTAKPRENSYLRLYGKDVVCNTMMPWEFEQLAKEQGFKVIDGIGVYKRGVNEKMLGQLPTELQQSLTFLWVFMLKNV",
    "soluble on expression in E. coli": "not soluble"
  },
  {
    "residue.codes": "MDWQNRFSVLNLSSHDPLPELMLTHLTGWGAITLVGADKKAYLQGQVTCNVVSLQEQQVTFGAHCDAKGKVWSVFRLFHHHDGYAMFQPQSAMEVELRELKKYAIFSKVTIAESSDIALGVMGSQADAWIDTVSETTGDVRRIAGGTAVRMSPQRWLLLVNAEQAEQYVNAWQGLHVEQSLWTRMDIEEAVPVVTQTAQNEHIPQALNVQAVDGISFTKGCYTGQETVARAKYRGINKRAMYIVKGNLSAPLSQDEPVVLERAVGENWRSAGALLTHYRFTDSIAIGLIVLPNDLEHDVKLRLAAQPDTRWHIQPLPYSLSDELEHHHHHH",
    "soluble on expression in E. coli": "soluble"
  },
  {
    "residue.codes": "MPGNSPHYGRWPQHDFTSLKKLRPQSVTSRIQPGSDVIVCAEMDEQWGYVGAKSRQRWLFYAYDSLRKTVVAHVFGERTMATLGRLMSLLSPFDVVIWMTDGWPLYESRLKGKLHVISKRYTQRIERHNLNLRQHLARLGRKSLSFSKSVELHDKVIGHYLNIKHYQLEHHHHHH",
    "soluble on expression in E. coli": "soluble"
  },
  {
    "residue.codes": "MHHHHHHKSTKILILGAGPAGFSAAKAALGKCDDITMINSEKYLPYYRPRLNEIIAKNKSIDDILIKKNDWYEKNNIKVITSEFATSIDPNNKLVTLKSGEKIKYEKLIIASGSIANKIKVPHADEIFSLYSYDDALKIKDECKNKGKAFIIGGGILGIELAQAIIDSGTPASIGIILEYPLERQLDRDGGLFLKDKLDRLGIKIYTNSNFEEMGDLIRSSCVITAVGVKPNLDFIKDTEIASKRGILVNDHMETSIKDIYACGDVAEFYGKNPGLINIANKQGEVAGLNACGEDASYSEIIPSPILKVSGISIISCGDIENNKPSKVFRSTQEDKYIVCMLKENKIDAAAVIGDVSLGTKLKKAIDSSKSFDNISSLDAILNNL",
    "soluble on expression in E. coli": "soluble"
  },
  {
    "residue.codes": "MPKWGNINERRNQLHEVIRLSGMNLIIDDTDHPLIIKVASIQSARMQVYFIDNDDYFQNRLQTADENGVEYDDNDSRAIFYARGVLETVKKLRWCPDVIHCHGWMTALAPLYIKKAYKDEPSFRDAKVVFSVYEDDFKGTFNNDFASKLMLKGINKKDVATLKDPVDYATLCKLAVDYSDGIVQNSEHVNEDVMNYARQSGKLVLDYQAPDALADACNSFYDQVWEAEQK",
    "soluble on expression in E. coli": "not soluble"
  },
  {
    "residue.codes": "MWHSIEQAISVETGKSFYISEKKEISTRPASSSSFTCSYDNKEPPPNLSFKITDGHRSYFLKINNKDYLENFQAEAYSLKQLNSLANIASPNVTAIGTSLDKSFLVLDYIDFSKAKPMLWYQLGQQLAQMHYENRHGQFGWQHDNFIGSTIQPNHWSSNWTTFFSDQRIAWQLQLLSERSIMLGNIEHITQVCHDALLHHQVSPCLVHGDLWQGNTGFSGEKAMIFDPACYYGDREVDIAMTELFGHFPDDFYHGYQAEYPLDDGYEQRKLVYNFYHILNHANIFGGIYIDQAKATLSRIMSLPLHLEHHHHHH",
    "soluble on expression in E. coli": "not soluble"
  },
  {
    "residue.codes": "MPPFMSGLRAVSSLLSCRNAISRKLVSRSGIPRGSFVSDQIRRFGSLSGVERCSSNWLMSNDDARVSFRRLPGSVSLLQRRHFLGCGDGEEGGGELSKIYEERRVLGYTPEQMFNVVAAVDLYHGFVPWCQRSEVLKEYPDGSFDAELEIGFKFLVESYISHVESERPKWIKTTARDTGLFDHLINLWQFKPGPIPGTCDLHFHVDFKFNSPLYRQVASMFFKEVASRLVGAFSDRCRLVYGPGVRVDENAYEQRA",
    "soluble on expression in E. coli": "soluble"
  },
  {
    "residue.codes": "MDTTYGPPAPALSGLTLGIREYSLFQAVLLVIDRLRDAHPHLSEDDLYDQLEFQANPSLGFPSSDVSRVEFFHEHGQMRARMQFNLIGLVGSGSPLPAFYGEQALGDSEDGNPTRNFLDLFHHRLQRLMLPIWKKYRYRASFESGALDPFSAQLFALIGLGGEEIRRAQELNWKRLLPYLGLLSLRAHSAALIEAVLRYYFKHAELTIEQCIERRVEILDEQRNRLGSANSMLGEDLVLGDHVRDRSGKFRIHIRELDWQRFHEFLPIGFGYQPLCALVRFTLRDPLDYDIRLVLRQEEIRELRIGEQNACRLGWTSWLGREKADGVVTLGSKIH",
    "soluble on expression in E. coli": "not soluble"
  },
  {
    "residue.codes": "MANNVTFWFDVSCPFCWITSRWIKEVEKVRDISVTWVPMSLSVLNDGRDELPQDYKDKMKANWGPARVFAAVATEQPDRVDALYTAMGTRIHNQGEGGKQGYAAYDAIIADALEDVGLPASYAAVANTDTWDNALAAFHATAMDAVGNDVGTPVVKLGDTAFFGPVLTRIPRGEEAGMLFDASFQLAAYPHFFEIKRTRTESPQFD",
    "soluble on expression in E. coli": "not soluble"
  },
  {
    "residue.codes": "MVKETKLYDLLGVSPSANEQELKKGYRKAALKYHPDKPTGDTEKFKEISEAFEILNDPQKREIYDQYGLEAARSGGPSFGPGGPGGAGG",
    "soluble on expression in E. coli": "soluble"
  }
]
